Recorded Ki values for a group of compounds are listed next.
Target: ALK (Homo sapiens)
recorded-endpoint: Ki

{"columns": ["compound", "recorded-endpoint", "result"],
 "data": [
  ["COc1cc(C(=O)NCCN(C)C)ccc1Nc1cc(Cc2c(Cl)cccc2Cl)nc2cc[nH]c(=O)c12 [Example 23]", "Ki", "12 nM"],
  ["COc1cc(N2CCC(N(C)C)CC2)ccc1Nc1nc(Cc2c(Cl)cccc2Cl)cc2cc[nH]c(=O)c12 [Example 10]", "Ki", "180 nM"],
  ["COc1cc(C(=O)NCCN2CCCC2)ccc1Nc1cc(Cc2c(Cl)cccc2Cl)nc2cc[nH]c(=O)c12 [Example 21]", "Ki", "25 nM"],
  ["COc1cc(C(=O)NCCCN2CCOCC2)ccc1Nc1cc(Cc2c(Cl)cccc2Cl)nc2cc[nH]c(=O)c12 [Example 18]", "Ki", "51 nM"],
  ["COc1cc(C(=O)N2CCN(C)CC2)ccc1Nc1cc(Cc2c(Cl)cccc2Cl)nc2cc[nH]c(=O)c12 [Example 20]", "Ki", "51 nM"],
  ["COc1cc(N2CCNCC2)ccc1Nc1cc(Cc2c(Cl)cccc2Cl)nc2nc[nH]c(=O)c12 [Example 11]", "Ki", "70 nM"],
  ["O=c1[nH]ccc2cc(Cc3c(F)cccc3Cl)nc(Nc3ccc(N4CCNCC4)cc3)c12 [Example 16]", "Ki", "480 nM"]
]}

----------
Target: ALK (Homo sapiens, UniProt Q9UM73)
Sequence (Q9UM73 19-1620): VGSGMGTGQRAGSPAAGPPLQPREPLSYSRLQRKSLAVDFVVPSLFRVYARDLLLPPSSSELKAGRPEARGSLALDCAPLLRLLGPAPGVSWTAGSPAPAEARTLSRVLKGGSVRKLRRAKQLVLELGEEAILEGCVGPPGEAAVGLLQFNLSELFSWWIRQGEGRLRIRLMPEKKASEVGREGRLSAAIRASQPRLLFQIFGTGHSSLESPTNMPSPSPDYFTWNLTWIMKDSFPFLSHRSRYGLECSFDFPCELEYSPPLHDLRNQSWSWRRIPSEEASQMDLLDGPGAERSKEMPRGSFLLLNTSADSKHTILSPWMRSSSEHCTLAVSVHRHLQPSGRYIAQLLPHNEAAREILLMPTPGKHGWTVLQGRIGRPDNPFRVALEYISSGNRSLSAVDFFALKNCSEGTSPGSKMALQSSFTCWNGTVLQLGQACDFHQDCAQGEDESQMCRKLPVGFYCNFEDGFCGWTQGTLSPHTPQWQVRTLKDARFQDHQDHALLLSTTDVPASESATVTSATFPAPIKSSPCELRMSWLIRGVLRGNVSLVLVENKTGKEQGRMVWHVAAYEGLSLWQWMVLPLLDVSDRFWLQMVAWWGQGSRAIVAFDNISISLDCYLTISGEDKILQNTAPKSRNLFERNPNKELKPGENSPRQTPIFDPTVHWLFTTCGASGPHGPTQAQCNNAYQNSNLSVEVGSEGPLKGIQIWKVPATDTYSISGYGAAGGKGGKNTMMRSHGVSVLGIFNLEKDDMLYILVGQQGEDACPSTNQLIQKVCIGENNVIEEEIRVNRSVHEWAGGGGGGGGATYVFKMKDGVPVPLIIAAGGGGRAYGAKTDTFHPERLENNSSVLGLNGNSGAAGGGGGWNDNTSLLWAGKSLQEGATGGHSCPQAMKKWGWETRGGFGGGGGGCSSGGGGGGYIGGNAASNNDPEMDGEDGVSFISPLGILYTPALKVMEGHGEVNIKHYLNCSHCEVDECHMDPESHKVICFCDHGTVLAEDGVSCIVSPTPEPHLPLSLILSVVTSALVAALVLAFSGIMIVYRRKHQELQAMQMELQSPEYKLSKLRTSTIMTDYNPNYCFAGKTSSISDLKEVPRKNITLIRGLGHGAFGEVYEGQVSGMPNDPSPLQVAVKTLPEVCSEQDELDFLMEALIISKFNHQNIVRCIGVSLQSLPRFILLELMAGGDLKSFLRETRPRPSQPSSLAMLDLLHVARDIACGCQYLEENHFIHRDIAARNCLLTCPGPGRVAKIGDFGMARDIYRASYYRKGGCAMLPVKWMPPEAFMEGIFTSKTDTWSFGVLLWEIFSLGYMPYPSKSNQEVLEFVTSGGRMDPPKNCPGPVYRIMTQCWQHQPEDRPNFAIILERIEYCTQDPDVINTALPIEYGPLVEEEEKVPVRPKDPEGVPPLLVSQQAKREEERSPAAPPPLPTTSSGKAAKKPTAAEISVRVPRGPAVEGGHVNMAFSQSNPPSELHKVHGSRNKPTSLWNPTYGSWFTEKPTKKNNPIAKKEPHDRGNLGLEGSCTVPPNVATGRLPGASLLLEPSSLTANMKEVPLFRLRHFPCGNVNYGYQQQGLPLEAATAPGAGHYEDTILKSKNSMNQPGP
pKi: −log10 of the molar value.
Assign a class from recorded pKi; defined classes: Low = under 7, Mid = from 7 up to 8, High = 8 and over

{"columns": ["molecule-smiles", "label-value"],
 "data": [
  ["COc1cc(C(=O)NCCN2CCN(C)CC2)ccc1Nc1nc(Cc2c(Cl)cccc2Cl)cc2cc[nH]c(=O)c12", "Low"],
  ["COc1cc(N2CCNCC2)ccc1Nc1nc(Cc2c(Cl)cccc2Cl)cc2cc[nH]c(=O)c12", "High"],
  ["COc1cc(C(=O)NCCCCN(C)C)ccc1Nc1nc(Cc2c(Cl)cccc2Cl)cc2cc[nH]c(=O)c12", "Mid"],
  ["O=c1[nH]ccc2nc(Cc3c(Cl)cccc3Cl)nc(Nc3ccc(N4CCNCC4)cc3)c12", "Low"]
]}

----------
Reported values: Ki for UniProt:Q9UM73, one per item.
recorded-endpoint: Ki (nM)

{"columns": ["molecule-smiles", "test-system", "measure-unit", "result-number"],
 "data": [
  ["O=c1[nH]ccc2cc(Cc3c(Cl)cccc3Cl)nc(Nc3ccc(N4CCNCC4)cc3)c12", "UniProt:Q9UM73", "nM", 14],
  ["COc1cc(N2CCNCC2)ccc1Nc1cc(Cc2ccccc2Cl)nc2cc[nH]c(=O)c12", "UniProt:Q9UM73", "nM", 7],
  ["O=c1[nH]ccc2nc(Cc3c(Cl)cccc3Cl)cc(Nc3ccc(N4CCNCC4)cc3)c12", "UniProt:Q9UM73", "nM", 72],
  ["O=c1[nH]cnc2cc(Cc3c(Cl)cccc3Cl)nc(Nc3ccc(N4CCNCC4)cc3)c12", "UniProt:Q9UM73", "nM", 10],
  ["COc1cc(N2CCNCC2)ccc1Nc1nc(Cc2c(Cl)cccc2Cl)nc2cc[nH]c(=O)c12", "UniProt:Q9UM73", "nM", 84]
]}
